IC50 values recorded for Prostaglandin G/H synthase 1 (Ovis aries)
Form entry: value (µM) — number only.

- structure.smiles: "Cc1ccc(S(=O)(=O)n2cc(C(=O)C(=O)N[C@@H](Cc3c[nH]c4ccccc34)C(=O)O)c3ccccc32)cc1"
  assay.endpoint: "IC50"
  measure.unit: "µM"
  reading: 87.2
- structure.smiles: "COC(=O)CNC(=O)CNC(=O)C(=O)c1cn(S(=O)(=O)c2ccc(C)cc2)c2ccccc12"
  assay.endpoint: "IC50"
  measure.unit: "µM"
  reading: 104
- structure.smiles: "COC(=O)CC[C@@H](NC(=O)[C@@H](Cc1cnc[nH]1)NC(=O)C(=O)c1cn(S(=O)(=O)c2ccc(C)cc2)c2ccccc12)C(=O)OC"
  assay.endpoint: "IC50"
  measure.unit: "µM"
  reading: 20.2

Here's the next entry for you.
Task item: Prostaglandin G/H synthase 1 (Ovis aries) / IC50 / `Cc1ccc(S(=O)(=O)n2cc(C(=O)C(=O)N[C@@H](Cc3c[nH]c4ccccc34)C(=O)NCC(=O)O)c3ccccc32)cc1` : value?
Reply: 2.21

----------
Test system: Mus musculus
protocol.text: Anti-hyperalgesic activity against Swiss albino mouse assessed as reduction in paw lickings at 5 mg/kg, ip administered 30 mins prior to capsaicin injection relative to control
Type: functional
assay.endpoint: inhibition in vivo at 5 mg/kg (%)
Field: numeric (%). Do not append units.

Recorded results for 3 molecules are shown here.
- structure.smiles: "Cc1ccc(S(=O)(=O)n2cc(C(=O)C(=O)N[C@@H](Cc3cnc[nH]3)C(=O)N[C@@H](CCC(=O)O)C(=O)O)c3ccccc32)cc1"
  inhibition in vivo at 5 mg/kg [%]: 95
- structure.smiles: "Cc1ccc(S(=O)(=O)n2cc(C(=O)C(=O)NCC(=O)NCC(=O)O)c3ccccc32)cc1"
  inhibition in vivo at 5 mg/kg [%]: 90
- structure.smiles: "Cc1ccc(S(=O)(=O)n2cc(C(=O)C(=O)N[C@@H](Cc3c[nH]c4ccccc34)C(=O)NCC(=O)O)c3ccccc32)cc1"
  inhibition in vivo at 5 mg/kg [%]: 96

# evaluate next
Task item: Using the record for `Cc1ccc(S(=O)(=O)n2cc(C(=O)C(=O)NCC(=O)N[C@@H](Cc3c[nH]c4ccccc34)C(=O)O)c3ccccc32)cc1` , report its inhibition in vivo at 5 mg/kg.
Reply: 88

----------
Documented Ki across a set of compounds
protocol.text: Competitive inhibition of soyabean 5-LOX by UV-Visible spectrophotometry
Set-up: species or system Glycine max
Entry rule: numbers only, all in nM.

Below, each entry is followed by its recorded Ki result.
- structure.smiles: "COC(=O)CC[C@H](NC(=O)[C@H](Cc1cnc[nH]1)NC(=O)C(=O)c1cn(S(=O)(=O)c2ccc(C)cc2)c2ccccc12)C(=O)OC"
  reading: 356
- structure.smiles: "COC(=O)CNC(=O)[C@H](Cc1c[nH]c2ccccc12)NC(=O)C(=O)c1cn(S(=O)(=O)c2ccc(C)cc2)c2ccccc12"
  reading: 946
- structure.smiles: "Cc1ccc(S(=O)(=O)n2cc(C(=O)C(=O)NCC(=O)N[C@@H](Cc3c[nH]c4ccccc34)C(=O)O)c3ccccc32)cc1"
  reading: 64
- structure.smiles: "Cc1ccc(S(=O)(=O)n2cc(C(=O)C(=O)NCC(=O)NCC(=O)O)c3ccccc32)cc1"
  reading: 232
- structure.smiles: "Cc1ccc(S(=O)(=O)n2cc(C(=O)C(=O)N[C@@H](Cc3cnc[nH]3)C(=O)N[C@@H](CCC(=O)O)C(=O)O)c3ccccc32)cc1"
  reading: 536
- structure.smiles: "COC(=O)[C@H](Cc1c[nH]c2ccccc12)NC(=O)CNC(=O)C(=O)c1cn(S(=O)(=O)c2ccc(C)cc2)c2ccccc12"
  reading: 753
- structure.smiles: "COC(=O)CNC(=O)CNC(=O)C(=O)c1cn(S(=O)(=O)c2ccc(C)cc2)c2ccccc12"
  reading: 97

Task item: Which measured Ki value corresponds to `Cc1ccc(S(=O)(=O)n2cc(C(=O)C(=O)N[C@@H](Cc3c[nH]c4ccccc34)C(=O)NCC(=O)O)c3ccccc32)cc1` ?
Reply: 42

----------
Each entry below carries its measured Ka, system: Glycine max.
// note: answer is a bare numeric in ×10⁵ /M

Consider the worked cases shown below.
- structure.smiles: "COC(=O)CNC(=O)CNC(=O)C(=O)c1cn(S(=O)(=O)c2ccc(C)cc2)c2ccccc12"
  assayed.system: "Glycine max"
  assay.endpoint: "Ka"
  reading: 2.08
- structure.smiles: "COC(=O)CC[C@H](NC(=O)[C@H](Cc1cnc[nH]1)NC(=O)C(=O)c1cn(S(=O)(=O)c2ccc(C)cc2)c2ccccc12)C(=O)OC"
  assayed.system: "Glycine max"
  assay.endpoint: "Ka"
  reading: 3.02
- structure.smiles: "Cc1ccc(S(=O)(=O)n2cc(C(=O)C(=O)NCC(=O)NCC(=O)O)c3ccccc32)cc1"
  assayed.system: "Glycine max"
  assay.endpoint: "Ka"
  reading: 2.99

Let us move to another entry and its Ka.
Task item: Query for Glycine max: what Ka does the record show for `Cc1ccc(S(=O)(=O)n2cc(C(=O)C(=O)N[C@@H](Cc3cnc[nH]3)C(=O)N[C@@H](CCC(=O)O)C(=O)O)c3ccccc32)cc1` ?
Reply: 1.99

----------
protocol.text: Inhibition of soyabean 5-LOX using arachidonic acid as substrate by microplate scanning spectrophotometer analysis
Design: species or system Glycine max
assay.endpoint: IC50 (nM)
Quick reminder: number only, in nM, skip the unit.

Task item: Query (molecule): `COC(=O)[C@@H](Cc1c[nH]c2ccccc12)NC(=O)CNC(=O)C(=O)c1cn(S(=O)(=O)c2ccc(C)cc2)c2ccccc12` ; field requested: IC50
Reply: 12200

Task item: // lookup IC50 for CC(C)(C)Sc1c(CC(C)(C)C(=O)O)n(Cc2ccc(Cl)cc2)c2ccc(OCc3ccc4ccccc4n3)cc12 [QUIFLAPON]
Reply: 1600

Task item: Value lookup for IC50; key = `Cc1ccc(S(=O)(=O)n2cc(C(=O)C(=O)N[C@@H](Cc3c[nH]c4ccccc34)C(=O)NCC(=O)O)c3ccccc32)cc1`
Reply: 2

----------
molecules and their reported pKi
assayed.system: Prostaglandin G/H synthase 2 (Homo sapiens, UniProt P35354)
Sequence (P35354 whole entry): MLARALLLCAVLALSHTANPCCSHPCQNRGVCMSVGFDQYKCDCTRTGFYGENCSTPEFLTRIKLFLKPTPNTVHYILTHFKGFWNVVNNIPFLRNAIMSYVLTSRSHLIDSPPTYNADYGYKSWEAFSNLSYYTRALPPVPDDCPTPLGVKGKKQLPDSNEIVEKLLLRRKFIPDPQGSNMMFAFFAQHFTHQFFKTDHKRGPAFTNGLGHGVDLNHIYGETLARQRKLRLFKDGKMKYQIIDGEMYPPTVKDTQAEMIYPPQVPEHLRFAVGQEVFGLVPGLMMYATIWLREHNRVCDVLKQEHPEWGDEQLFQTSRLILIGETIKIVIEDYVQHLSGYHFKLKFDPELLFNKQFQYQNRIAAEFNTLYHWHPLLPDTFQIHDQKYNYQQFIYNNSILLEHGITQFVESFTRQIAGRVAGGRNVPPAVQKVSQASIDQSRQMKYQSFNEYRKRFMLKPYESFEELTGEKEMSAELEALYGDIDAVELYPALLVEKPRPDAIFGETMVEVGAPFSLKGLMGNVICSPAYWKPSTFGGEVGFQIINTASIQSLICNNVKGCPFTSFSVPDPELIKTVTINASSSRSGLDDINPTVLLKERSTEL
protocol.text: Competitive inhibition of human recombinant COX-2 by UV-Visible spectrophotometry
Remember, pKi is on a log scale: it is -log10 of the molar concentration.

- structure.smiles: "COC(=O)CC[C@H](NC(=O)[C@H](Cc1cnc[nH]1)NC(=O)C(=O)c1cn(S(=O)(=O)c2ccc(C)cc2)c2ccccc12)C(=O)OC"
  pKi: 6.01
- structure.smiles: "COC(=O)CNC(=O)[C@H](Cc1c[nH]c2ccccc12)NC(=O)C(=O)c1cn(S(=O)(=O)c2ccc(C)cc2)c2ccccc12"
  pKi: 5.54
- structure.smiles: "Cc1ccc(S(=O)(=O)n2cc(C(=O)C(=O)N[C@@H](Cc3c[nH]c4ccccc34)C(=O)NCC(=O)O)c3ccccc32)cc1"
  pKi: 6.96

Let us move to another entry and its pKi.
Task item: Could you tell me which pKi is on file for `Cc1ccc(S(=O)(=O)n2cc(C(=O)C(=O)NCC(=O)N[C@@H](Cc3c[nH]c4ccccc34)C(=O)O)c3ccccc32)cc1` ?
Reply: 8.30

----------
protocol.text: Inhibition of soyabean 5-LOX using arachidonic acid as substrate by microplate scanning spectrophotometer analysis
Set-up: species or system Glycine max
pIC50: −log10 of the molar value.
# cutoff 6 applies to pIC50; >= gives true (1), < gives false (0)

See these solved cases before continuing.
- structure.smiles: "Cc1ccc(S(=O)(=O)n2cc(C(=O)C(=O)N[C@H](Cc3c[nH]c4ccccc34)C(=O)NCC(=O)O)c3ccccc32)cc1"
  class: "false (0)"
- structure.smiles: "Cc1ccc(S(=O)(=O)n2cc(C(=O)C(=O)NCC(=O)N[C@@H](Cc3c[nH]c4ccccc34)C(=O)O)c3ccccc32)cc1"
  class: "true (1)"
- structure.smiles: "COC(=O)CNC(=O)[C@@H](Cc1c[nH]c2ccccc12)NC(=O)C(=O)c1cn(S(=O)(=O)c2ccc(C)cc2)c2ccccc12"
  class: "false (0)"
- structure.smiles: "Cc1ccc(S(=O)(=O)n2cc(C(=O)C(=O)N[C@H](Cc3cnc[nH]3)C(=O)N[C@H](CCC(=O)O)C(=O)O)c3ccccc32)cc1"
  class: "false (0)"
- structure.smiles: "Cc1ccc(S(=O)(=O)n2cc(C(=O)C(=O)N[C@@H](Cc3cnc[nH]3)C(=O)O)c3ccccc32)cc1"
  class: "false (0)"

Task item: Is the recorded value of pIC50 equal to or greater than 6 for this molecule? `Cc1ccc(S(=O)(=O)n2cc(C(=O)C(=O)NCC(=O)NCC(=O)O)c3ccccc32)cc1`
Reply: true (1)

Task item: Say whether `Cc1ccc(S(=O)(=O)n2cc(C(=O)C(=O)N[C@@H](Cc3cnc[nH]3)C(=O)N[C@@H](CCC(=O)O)C(=O)O)c3ccccc32)cc1` shows pIC50 of 6 or more.
Reply: true (1)

Task item: Could you tell me if the measured pIC50 of `Cc1ccc(S(=O)(=O)n2cc(C(=O)C(=O)NCC(=O)N[C@H](Cc3c[nH]c4ccccc34)C(=O)O)c3ccccc32)cc1` reaches 6 or more?
Reply: false (0)
